# System Under Test: NTCP (Homo sapiens)
# Sequence (Q14973 whole entry): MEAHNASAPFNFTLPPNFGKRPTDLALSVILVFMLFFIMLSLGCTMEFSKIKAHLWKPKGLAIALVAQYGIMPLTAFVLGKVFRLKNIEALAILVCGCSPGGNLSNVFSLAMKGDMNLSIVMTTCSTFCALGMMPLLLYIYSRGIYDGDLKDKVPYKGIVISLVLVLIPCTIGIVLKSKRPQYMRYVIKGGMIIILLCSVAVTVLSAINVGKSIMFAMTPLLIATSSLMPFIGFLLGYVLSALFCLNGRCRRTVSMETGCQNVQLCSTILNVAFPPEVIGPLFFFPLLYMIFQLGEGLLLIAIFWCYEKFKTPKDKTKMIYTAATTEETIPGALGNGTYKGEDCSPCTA
# Protocol Text: [3H]-TCA uptake assay (NTCP inhibition)
# Assay type: cell-based
# Reported Conditions: IC50, given as a range, marked * (asterisk not explained)
This listing pairs molecules with measured IC50.

Molecule	IC50
CCC1NC(=O)C(C2OC(Oc3cccc(OCCN(C)C)c3)CC2C)N(C)C(=O)C(C(C)C)N(C)C(=O)C(CC(C)C)N(C)C(=O)C(CC(C)C)N(C)C(=O)C(C)NC(=O)C(C)NC(=O)C(CC(C)C)N(C)C(=O)C(C(C)C)NC(=O)C(CC(C)C)N(C)C(=O)CN(C)C1=O (centres unmarked) [Compound 14A-o]	1 to 100 µM
CCOc1ccc(OC2CC(C)C(C3C(=O)NC(CC)C(=O)N(C)CC(=O)N(C)C(CC(C)C)C(=O)NC(C(C)C)C(=O)N(C)C(CC(C)C)C(=O)NC(C)C(=O)NC(C)C(=O)N(C)C(CC(C)C)C(=O)N(C)C(CC(C)C)C(=O)N(C)C(C(C)C)C(=O)N3C)O2)cc1 (centres unmarked) [Compound 27A-o]	1 to 100 µM
CCC1NC(=O)C(C2OC(Oc3ccc(N(C)C)cc3)CC2C)N(C)C(=O)C(C(C)C)N(C)C(=O)C(CC(C)C)N(C)C(=O)C(CC(C)C)N(C)C(=O)C(C)NC(=O)C(C)NC(=O)C(CC(C)C)N(C)C(=O)C(C(C)C)NC(=O)C(CC(C)C)N(C)C(=O)CN(C)C1=O (centres unmarked) [Compound 51A-o]	1 to 100 µM
CCC1NC(=O)C(C2OC(Oc3ccc(CN4CCN(C)CC4)cc3)CC2C)N(C)C(=O)C(C(C)C)N(C)C(=O)C(CC(C)C)N(C)C(=O)C(CC(C)C)N(C)C(=O)C(C)NC(=O)C(C)NC(=O)C(CC(C)C)N(C)C(=O)C(C(C)C)NC(=O)C(CC(C)C)N(C)C(=O)CN(C)C1=O (centres unmarked)	1 to 100 µM
CCCN(C)c1cccc(OC2CC(C)C(C3C(=O)NC(CC)C(=O)N(C)CC(=O)N(C)C(CC(C)C)C(=O)NC(C(C)C)C(=O)N(C)C(CC(C)C)C(=O)NC(C)C(=O)NC(C)C(=O)N(C)C(CC(C)C)C(=O)N(C)C(CC(C)C)C(=O)N(C)C(C(C)C)C(=O)N3C)O2)c1 (centres unmarked) [Compound 50A-o]	1 to 100 µM
CCC1NC(=O)C(C2OC(SCc3ccc4c(c3)OCO4)CC2C)N(C)C(=O)C(C(C)C)N(C)C(=O)C(CC(C)C)N(C)C(=O)C(CC(C)C)N(C)C(=O)C(C)NC(=O)C(C)NC(=O)C(CC(C)C)N(C)C(=O)C(C(C)C)NC(=O)C(CC(C)C)N(C)C(=O)CN(C)C1=O (centres unmarked) [Compound 100A-s]	1 to 100 µM
CCC1NC(=O)C(C2OC(Oc3ccc(C)cc3)CC2C)N(C)C(=O)C(C(C)C)N(C)C(=O)C(CC(C)C)N(C)C(=O)C(CC(C)C)N(C)C(=O)C(C)NC(=O)C(C)NC(=O)C(CC(C)C)N(C)C(=O)C(C(C)C)NC(=O)C(CC(C)C)N(C)C(=O)CN(C)C1=O (centres unmarked)	1 to 100 µM
CCC1NC(=O)C(C2OC(SC(c3ccccc3)c3ccccc3)CC2C)N(C)C(=O)C(C(C)C)N(C)C(=O)C(CC(C)C)N(C)C(=O)C(CC(C)C)N(C)C(=O)C(C)NC(=O)C(C)NC(=O)C(CC(C)C)N(C)C(=O)C(C(C)C)NC(=O)C(CC(C)C)N(C)C(=O)CN(C)C1=O (centres unmarked) [Compound 80A-s]	1 to 100 µM
CCC1NC(=O)C(C2OC(Oc3cccc(OCC4CCN(C)CC4)c3)CC2C)N(C)C(=O)C(C(C)C)N(C)C(=O)C(CC(C)C)N(C)C(=O)C(CC(C)C)N(C)C(=O)C(C)NC(=O)C(C)NC(=O)C(CC(C)C)N(C)C(=O)C(C(C)C)NC(=O)C(CC(C)C)N(C)C(=O)CN(C)C1=O (centres unmarked)	1 to 100 µM
CCC1NC(=O)C(C2OC(SCc3c(Cl)cccc3Cl)CC2C)N(C)C(=O)C(C(C)C)N(C)C(=O)C(CC(C)C)N(C)C(=O)C(CC(C)C)N(C)C(=O)C(C)NC(=O)C(C)NC(=O)C(CC(C)C)N(C)C(=O)C(C(C)C)NC(=O)C(CC(C)C)N(C)C(=O)CN(C)C1=O (centres unmarked) [Compound 90A-s]	1 to 100 µM
CCC1NC(=O)C(C2OC(SCc3cccc(S(=O)(=O)OCC(C)C)c3)CC2C)N(C)C(=O)C(C(C)C)N(C)C(=O)C(CC(C)C)N(C)C(=O)C(CC(C)C)N(C)C(=O)C(C)NC(=O)C(C)NC(=O)C(CC(C)C)N(C)C(=O)C(C(C)C)NC(=O)C(CC(C)C)N(C)C(=O)CN(C)C1=O (centres unmarked) [Compound 75A-s]	1 to 100 µM
CCC1NC(=O)C(C2OC(SCc3cc(F)c(Cl)cc3Cl)CC2C)N(C)C(=O)C(C(C)C)N(C)C(=O)C(CC(C)C)N(C)C(=O)C(CC(C)C)N(C)C(=O)C(C)NC(=O)C(C)NC(=O)C(CC(C)C)N(C)C(=O)C(C(C)C)NC(=O)C(CC(C)C)N(C)C(=O)CN(C)C1=O (centres unmarked) [Compound 101A-s]	1 to 100 µM
CCC1NC(=O)C(C2OC(Oc3cc(Cl)cc(OCc4ccccc4)c3)CC2C)N(C)C(=O)C(C(C)C)N(C)C(=O)C(CC(C)C)N(C)C(=O)C(CC(C)C)N(C)C(=O)C(C)NC(=O)C(C)NC(=O)C(CC(C)C)N(C)C(=O)C(C(C)C)NC(=O)C(CC(C)C)N(C)C(=O)CN(C)C1=O (centres unmarked)	1 to 100 µM
CCC1NC(=O)C(C2OC(Oc3ccc(Cl)c(OC)c3)CC2C)N(C)C(=O)C(C(C)C)N(C)C(=O)C(CC(C)C)N(C)C(=O)C(CC(C)C)N(C)C(=O)C(C)NC(=O)C(C)NC(=O)C(CC(C)C)N(C)C(=O)C(C(C)C)NC(=O)C(CC(C)C)N(C)C(=O)CN(C)C1=O (centres unmarked) [Compound 40A-o]	1 to 100 µM
